# target.under.test: furin, P09958;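 further: purified furin at 1:10 enzyme:substrate in 50 mM HEPES pH 7.5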
# Sequence (P09958 whole entry): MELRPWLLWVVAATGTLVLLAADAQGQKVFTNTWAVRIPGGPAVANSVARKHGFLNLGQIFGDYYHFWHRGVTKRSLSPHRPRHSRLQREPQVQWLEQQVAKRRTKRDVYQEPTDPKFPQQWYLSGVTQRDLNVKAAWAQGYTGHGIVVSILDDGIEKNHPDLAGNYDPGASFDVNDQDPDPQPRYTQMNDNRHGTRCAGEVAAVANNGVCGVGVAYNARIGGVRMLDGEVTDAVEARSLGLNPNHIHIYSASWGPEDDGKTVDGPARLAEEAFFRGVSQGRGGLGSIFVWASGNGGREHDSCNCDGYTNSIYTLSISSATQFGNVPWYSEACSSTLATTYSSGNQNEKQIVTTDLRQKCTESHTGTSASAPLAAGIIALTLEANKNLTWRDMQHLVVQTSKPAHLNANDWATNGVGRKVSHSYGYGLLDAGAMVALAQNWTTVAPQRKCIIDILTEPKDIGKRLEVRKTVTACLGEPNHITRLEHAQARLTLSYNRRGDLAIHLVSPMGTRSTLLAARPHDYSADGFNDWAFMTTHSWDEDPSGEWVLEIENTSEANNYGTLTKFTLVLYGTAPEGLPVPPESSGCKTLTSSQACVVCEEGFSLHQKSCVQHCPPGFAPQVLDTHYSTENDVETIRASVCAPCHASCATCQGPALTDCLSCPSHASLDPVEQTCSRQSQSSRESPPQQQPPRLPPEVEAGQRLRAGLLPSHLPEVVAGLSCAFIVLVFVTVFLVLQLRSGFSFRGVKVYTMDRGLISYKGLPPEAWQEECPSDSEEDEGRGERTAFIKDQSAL
# assay.text: furin cleavage Z-score vs untreated control; higher = more cleavage, active = 3.5 or more, inactive = 1 or less, 8 variable residues between constant flanks
# test.parameters: 30 min
This is one part of the list. The hit rate among all sequences tested is not known here.
measurement.label: furin cleavage Z-score
Kindly provide the number alone.

In: Would you mind telling me what furin cleavage Z-score value was observed for CARGRRQPIPAGNASASA [HC190] ?
Out: -0.134
